Could you please report measured residual activity for the items listed next?
molecular target: Serine/threonine-protein kinase mTOR (Homo sapiens); conditions: at 1 µM
Write down the numeric answer in % and omit the unit.

For record O=C(CCCc1ccc(-c2ccccc2F)cc1)Nc1ccc(O)cc1 the listed residual activity is 103

For record O=C(Nc1nc2ccccc2n1CCN1CCOCC1)c1cccc([N+](=O)[O-])c1 the listed residual activity is 108

For record Nc1ncnc2c1c(-c1ccc(Oc3ccccc3)cc1)cn2C1CCCC1 the listed residual activity is 99

###

molecular target: Serine/threonine-protein kinase TBK1 (Homo sapiens); details: at 10 µM
observed property: residual activity (%)
Write down the numeric answer in % and omit the unit.

For record COc1ccc(CNC(=O)Nc2ncc([N+](=O)[O-])s2)cc1 the listed residual activity is 59

For record O=c1cc(N2CCNCC2)oc2c(-c3ccccc3)cccc12 the listed residual activity is 54

For record COc1ccc(-c2cnc3c(-c4ccsc4)cnn3c2)cc1 the listed residual activity is 85

For record Nc1nc(Nc2ccc(S(N)(=O)=O)cc2)nn1C(=O)c1c(F)cccc1F the listed residual activity is 19

For record NC(=O)Nc1sc(-c2ccc(F)cc2)cc1C(N)=O the listed residual activity is 6

For record Nc1nccc(-c2c(-c3ccc(F)cc3)ncn2C2CCNCC2)n1 the listed residual activity is 69

For record Oc1cccc(-c2nc(N3CCOCC3)c3oc4ncccc4c3n2)c1 the listed residual activity is 67

For record CCCC(=O)Oc1ccc2[nH]c(C(=O)c3cc4ccccc4[nH]3)cc2c1 the listed residual activity is 59
